# Tested on: Plasmodium berghei
# protocol-text: Antiplasmodial activity against Plasmodium berghei ANKA early trophozoite stage by parasite LDH assay
# Format: functional, organism-based
pIC50: −log10 of the molar value.
Hi, to clarify the labels: yes covers pIC50 from 8 upward, no covers anything below 8.

CO[C@H]1O[C@@H]2O[C@@]3(C)CC[C@H]4[C@H](C)CC[C@@H]([C@H]1C)[C@@]24OO3 [ARTEMETHER] : yes

Qu. Does pIC50 meet or surpass 8 for `C[C@H]1[C@@H](OCCN(C)Cc2no[n+]([O-])c2C#N)O[C@@H]2O[C@@]3(C)CC[C@H]4[C@H](C)CC[C@@H]1[C@@]24OO3` ?
Ans. no

---

# Tested on: Plasmodium berghei
# protocol-text: Antiplasmodial activity against Plasmodium berghei ANKA early trophozoite stage by parasite LDH assay
# Format: functional, organism-based
measured-metric: IC50 (nM)
Numbers only, in nM.

Examples with their reported IC50 follow.
C[C@H]1[C@H](OC(=O)CCC(=O)O)O[C@@H]2O[C@@]3(C)CC[C@H]4[C@H](C)CC[C@@H]1[C@@]24OO3 [SODIUM ARESUNATE] : 16
C[C@H]1[C@@H](OCCN(C)Cc2no[n+]([O-])c2S(=O)(=O)c2ccccc2)O[C@@H]2O[C@@]3(C)CC[C@H]4[C@H](C)CC[C@@H]1[C@@]24OO3 : 14
C[C@H]1[C@@H](OCCN(C)Cc2no[n+]([O-])c2C(N)=O)O[C@@H]2O[C@@]3(C)CC[C@H]4[C@H](C)CC[C@@H]1[C@@]24OO3 : 16

With those in mind, consider the next molecule.
Notebook: `C[C@H]1[C@@H](OC(=O)CCC(=O)OCO/N=[N+](\[O-])N2CCCC2)O[C@@H]2O[C@@]3(C)CC[C@H]4[C@H](C)CC[C@@H]1[C@@]24OO3` , IC50 read as 15
